Test system: OVCAR-8
Assay name: NCI tumour cell line growth inhibition, 48 h
The source made the active and inactive calls. Rule as the data show it: active = GI50 up to about 1.1 µM and inactive = higher.
Attribute measured: GI50

Reference set, count: 4
- COc1cc2c(cc1OC)C(=O)N(c1ccc(O)cc1)C2: > 100 µM (inactive)
- COc1ccc(N2CCN(Cc3c(C(C)=O)[n+]([O-])c4ccccc4[n+]3[O-])CC2)cc1: 28.7 µM (inactive)
- COC(=O)NNC(c1ccc(Cl)cc1)c1ccc(Cl)cc1: 19.1 µM (inactive)
- C(=N\c1ccc(-c2nc3ccccc3s2)cc1)/c1cccs1: 49.2 µM (inactive)

Ask | Can you look up the measured GI50 of `CCOC(=O)c1c(N2CCCC2)[nH]c(=O)c(C(c2ccc(OC)cc2)c2c(O)c(C(=O)OCC)c(N3CCCC3)[nH]c2=O)c1O` for me?
Reply | 86.1 µM (inactive)
